In this section we review reported IC50 values for a set of substances.
# tgt: RTA depurination activity on yeast ribosomes (Ricinus communis, UniProt P02879)
# measurement_notes: biochemical
# Format: biochemical
# settings: Yeast Ribosome IC50
No end group written: not given here.
parameter: IC50 (µM)

- substance: "DDDMGFGLFD [P10]"
  tgt: "RTA depurination activity on yeast ribosomes (Ricinus communis, UniProt P02879)"
  parameter: "IC50"
  observed_value: 7.9
- substance: "DDMGFGLFD [P9]"
  tgt: "RTA depurination activity on yeast ribosomes (Ricinus communis, UniProt P02879)"
  parameter: "IC50"
  observed_value: 15
- substance: "MGFGLFD [P7, M109GFGLFD115]"
  tgt: "RTA depurination activity on yeast ribosomes (Ricinus communis, UniProt P02879)"
  parameter: "IC50"
  observed_value: 34
- substance: "DMGFGLFD [P8, D108MGFGLFD115]"
  tgt: "RTA depurination activity on yeast ribosomes (Ricinus communis, UniProt P02879)"
  parameter: "IC50"
  observed_value: 23
- substance: "GFGLFD [P6, G110FGLFD115]"
  tgt: "RTA depurination activity on yeast ribosomes (Ricinus communis, UniProt P02879)"
  parameter: "IC50"
  observed_value: 63
